# Tested On: KRAS G12S (Homo sapiens (Human), UniProt P01116+P62937, G12S)
# Sequence (P01116-2 other isoform, or with tags, fused parts or gaps G12S, one chain of several): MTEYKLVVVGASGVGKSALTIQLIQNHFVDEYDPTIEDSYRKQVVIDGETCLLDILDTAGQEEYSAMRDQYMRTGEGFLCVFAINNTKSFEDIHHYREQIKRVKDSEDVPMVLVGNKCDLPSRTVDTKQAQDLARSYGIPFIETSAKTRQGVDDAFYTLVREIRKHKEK
# Protocol Notes: Ras-Raf (BRAF RBD) disruption / FRET / MOA assay, KRAS G12S
# Type: biochemical
# Assay Setup: Ras-Raf disruption/FRET/MOA assay; class symbols; read-out: KRAS G12S FRET data IC50
Parameter: IC50

Given C=CC(=O)N(C)C(=O)N(C)[C@H](C(=O)N[C@H]1Cc2nc(cs2)-c2ccc3c(c2)c(c(-c2cccnc2[C@H](C)OC)n3CC)CC(C)(C)COC(=O)[C@@H]2CCCN(N2)C1=O)C(C)C (atropisomer, axis not shown) [Example A355] , state its recorded IC50.
> 10000 nM

Next molecule up: C=CC(=O)N1CC[C@]2(CCN2C(=O)N(C)[C@H](C(=O)N[C@H]2Cc3nc(cs3)-c3ccc4c(c3)c(c(-c3cccnc3[C@H](C)OC)n4CC)CC(C)(C)COC(=O)[C@@H]3CCCN(N3)C2=O)C(C)C)C1 (atropisomer, axis not shown) [Example A662]
100 to 1000 nM

Try the molecule C=CC(=O)N1CC2CCC1CN2C(=O)N(C)[C@H](C(=O)N[C@H]1Cc2nc(cs2)-c2ccc3c(c2)c(c(-c2cccnc2[C@H](C)OC)n3CC)CC(C)(C)COC(=O)[C@@H]2CCCN(N2)C1=O)C(C)C [Example A420]
100 to 1000 nM

And C=CC(=O)N1CC[C@H](C(=O)N(C)[C@H](C(=O)N[C@H]2Cc3cc(O)cc(c3)-c3ccc4c(c3)c(c(-c3cccc(CN(C)C)c3)n4CC)CC(C)(C)COC(=O)[C@@H]3CCCN(N3)C2=O)C(C)C)C1 [Example A030] ?
1000 to 10000 nM

Consider next the molecule C=CC(=O)N1CC2(C1)CN(C(=O)N(C)[C@H](C(=O)N[C@H]1Cc3nc(cs3)-c3ccc4c(c3)c(c(-c3cccnc3[C@H](C)OC)n4CC)CC(C)(C)COC(=O)[C@@H]3CCCN(N3)C1=O)C(C)C)C2 (atropisomer, axis not shown) [Example A419] in the same way.
100 to 1000 nM

Now consider CO[C@@H](C)c1ncccc1-c1c2c3cc(ccc3n1CC(F)(F)F)-c1nc(cs1)C[C@H](NC(=O)[C@H](C(C)C)N(C)C(=O)[C@H]1CCN(C(=O)C#CC(C)(C)N3CCC3)C1)C(=O)N1CCC[C@H](N1)C(=O)OCC(C)(C)C2 (atropisomer, axis not shown) [Example A454] .
1000 to 10000 nM

Request: C=CC(=O)N1CC[C@H](C(=O)N(C)[C@H](C(=O)N[C@H]2Cc3csc(n3)-c3ccc4c(c3)c(c(-c3cccnc3COC)n4CC)CC(C)(C)COC(=O)[C@@H]3CCCN(N3)C2=O)C(C)C)C1 [Example A118]
> 10000 nM

For C=CC(=O)N(C)CCC(=O)N(C)[C@H](C(=O)N[C@H]1Cc2cc(O)cc(c2)-c2ccc3c(c2)c(c(-c2cccnc2COC)n3CC)CC(C)(C)COC(=O)[C@@H]2CCCN(N2)C1=O)C(C)C [Example A117] then?
1000 to 10000 nM

---

Would you mind telling me the reported pIC50 of each entry?
# Tested On: KRAS G12D (Homo sapiens (Human), UniProt P01116+P62937, G12D)
# Sequence (P01116-2 other isoform, or with tags, fused parts or gaps G12D): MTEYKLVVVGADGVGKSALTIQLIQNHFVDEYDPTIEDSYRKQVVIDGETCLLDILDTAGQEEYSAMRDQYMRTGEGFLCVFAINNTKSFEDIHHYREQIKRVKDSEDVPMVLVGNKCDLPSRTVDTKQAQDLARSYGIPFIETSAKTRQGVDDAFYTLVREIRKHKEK
# Sequence (P62937 whole entry): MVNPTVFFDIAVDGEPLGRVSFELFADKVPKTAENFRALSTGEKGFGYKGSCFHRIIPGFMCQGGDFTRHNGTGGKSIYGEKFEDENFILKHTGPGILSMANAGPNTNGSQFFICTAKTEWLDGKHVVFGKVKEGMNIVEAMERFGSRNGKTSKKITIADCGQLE
# Protocol Notes: Ras-Raf (BRAF RBD) disruption / FRET / MOA assay, KRAS G12D
# Type: biochemical
# Assay Setup: Ras-Raf disruption/FRET/MOA assay; class symbols; read-out: KRAS G12D FRET data IC50
pIC50: −log10 of the molar value.

Which pIC50 value belongs to C=CC(=O)N1CCN(C(=O)N(C)[C@H](C(=O)N[C@H]2Cc3nc(cs3)-c3ccc4c(c3)c(c(-c3cccnc3[C@H](C)OC)n4CC)CC(C)(C)COC(=O)[C@@H]3CCCN(N3)C2=O)C(C)C)C[C@@H]1C (atropisomer, axis not shown) ?
6.00 to 7.00

Try C=CC(=O)N1CC[C@H](C(=O)N(C)[C@H](C(=O)N[C@H]2Cc3nc(n(C)n3)-c3ccc4c(c3)c(c(-c3cccnc3[C@H](C)OC)n4CC)CC(C)(C)COC(=O)[C@@H]3CCCN(N3)C2=O)C(C)C)C1 (atropisomer, axis not shown) next.
5.00 to 6.00

Further, for C=C(C)C(=O)N1CC2(CCN(C(=O)N(C)[C@H](C(=O)N[C@H]3Cc4nc(cs4)-c4ccc5c(c4)c(c(-c4cccnc4[C@H](C)OC)n5CC)CC(C)(C)COC(=O)[C@@H]4CCCN(N4)C3=O)C(C)C)CC2)C1 (atropisomer, axis not shown) ?
6.00 to 7.00

Another compound to check: C=CC(=O)N1CC[C@@H](C(=O)N(C)[C@H](C(=O)N[C@H]2Cc3cc(O)cc(c3)-c3ccc4c(c3)c(c(-c3cncnc3)n4CC)CC(C)(C)COC(=O)[C@@H]3CCCN(N3)C2=O)C(C)C)O1
5.00 to 6.00

Same again, this time with C=CC(=O)N1CC[C@H](C(=O)N(C)[C@H](C(=O)N[C@H]2Cc3cc(O)cc(c3)-c3ccc4c(c3)c(c(-c3cncnc3)n4CC)CC(C)(C)COC(=O)[C@@H]3CCCN(N3)C2=O)C(C)C)C1
< 5.00

Repeat for the following compound: CCn1c(-c2cccnc2[C@H](C)OC)c2c3cc(ccc31)-c1cccc(c1)C[C@H](NC(=O)[C@H](C(C)C)N1CO[C@@]3(CCN(C(=O)/C=C/CN(C)C)C3)C1=O)C(=O)N1CCC[C@H](N1)C(=O)OCC(C)(C)C2 (atropisomer, axis not shown)
5.00 to 6.00

Repeat for the following compound: CCn1c(-c2cccnc2[C@H](C)OC)c2c3cc(ccc31)-c1nc(nn1C)C[C@H](NC(=O)[C@@H](COC1CN(C(=O)C#CC(C)(C)N(C)C)C1)C(C)C)C(=O)N1CCC[C@H](N1)C(=O)OCC(C)(C)C2 (atropisomer, axis not shown)
< 5.00

Another compound: C=CC(=O)Nc1ncc(C(=O)N(C)[C@H](C(=O)N[C@H]2Cc3cccc(c3)-c3ccc4c(c3)c(c(-c3cccnc3[C@H](C)OC)n4CC)CC(C)(C)COC(=O)[C@@H]3CCCN(N3)C2=O)C(C)C)n1C (atropisomer, axis not shown) [Example A474]
< 5.00

Input C=CC(=O)N1C[C@@H](C(=O)N(C)[C@@H](C(=O)N[C@H]2Cc3cc(O)cc(c3)-c3ccc4c(c3)c(c(-c3cccnc3COC)n4CC)CC(C)(C)COC(=O)[C@@H]3CCCN(N3)C2=O)C(C)C)C[C@H]1C
< 5.00

Let us now turn to CCn1c(-c2cccnc2COC)c2c3cc(ccc31)-c1cc(O)cc(c1)C[C@H](NC(=O)[C@H](C(C)C)N(C)C(=O)[C@H]1CCN(C(=O)C#CCN3CCN(C)CC3)C1)C(=O)N1CCC[C@H](N1)C(=O)OCC(C)(C)C2
6.00 to 7.00

Queued: C=CC(=O)N1CC[C@H](C(=O)N(C)[C@H](C(=O)N[C@H]2Cc3coc(n3)-c3ccc4c(c3)c(c(-c3cccnc3[C@H](C)OC)n4CC)CC(C)(C)COC(=O)[C@@H]3CCCN(N3)C2=O)C(C)C)C1 (atropisomer, axis not shown)
< 5.00

Field entry: C=CC(=O)N1CC[C@H](C(=O)N(C)[C@H](C(=O)N[C@H]2Cc3cc(O)cc(c3)-c3ccc4c(c3)c(c(-c3cncc(C#N)c3)n4CC)CC(C)(C)COC(=O)[C@@H]3CCCN(N3)C2=O)C(C)C)C1
< 5.00

Next compound up: C=CC(=O)N(C)C[C@H]1CCN(C(=O)N(C)[C@H](C(=O)N[C@H]2Cc3nc(cs3)-c3ccc4c(c3)c(c(-c3cccnc3[C@H](C)OC)n4CC)CC(C)(C)COC(=O)[C@@H]3CCCN(N3)C2=O)C(C)C)C1 (atropisomer, axis not shown)
6.00 to 7.00

Same thing, different compound: CCn1c(-c2cccnc2[C@H](C)OC)c2c3cc(ccc31)-c1nc(co1)C[C@H](NC(=O)[C@@H](COC1CN(C(=O)C#CC(C)(C)N(C)C)C1)C(C)C)C(=O)N1CCC[C@H](N1)C(=O)OCC(C)(C)C2 (atropisomer, axis not shown)
< 5.00

Now consider CCn1c(-c2cnccc2COC)c2c3cc(ccc31)-c1cc(O)cc(c1)C[C@H](NC(=O)[C@H](C(C)C)N(C)C(=O)[C@H]1CCN(C(=O)C#CCN(C)C)C1)C(=O)N1CCC[C@H](N1)C(=O)OCC(C)(C)C2 [Example A088] and answer again.
5.00 to 6.00

Queued: CCn1c(-c2cccnc2COC)c2c3cc(ccc31)-c1cc(O)cc(c1)C[C@H](NC(=O)[C@H](C(C)C)N(C)C(=O)[C@H]1CCN(C(=O)C#CCCN3CCOCC3)C1)C(=O)N1CCC[C@H](N1)C(=O)OCC(C)(C)C2
5.00 to 6.00
